# Tested on: VPS34
# Construct: gene PIK3C3
# test-conditions: concentration: 1 μM,replicates: in singlicate; n = 1;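 note: KINOMEscan kinase panel screen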
Listed below: %Inh values for each entry.
Only the number, expressed in %, is required.

Worked examples, 6 molecules total:
* Cl.Oc1cc(-c2nc(-c3ccccc3)[nH]c2-c2ccncc2)ccc1Cl | 14
* CN(C)CC(O)COc1ccc(Nc2nccc(-c3cnn4nc(N5CCOCC5)ccc34)n2)cc1 (centres unmarked) | 95.4
* CNC(=O)c1ccccc1Sc1ccc2c(/C=C/c3ccccn3)n[nH]c2c1 | 3
* Cc1n[nH]c2ccc(-c3cc(OC[C@@H](N)Cc4ccccc4)cnc3-c3ccoc3)cc12.O=C(O)C(F)(F)F.O=C(O)C(F)(F)F | 0
* Cc1ccc(-n2nc(C(C)(C)C)cc2NC(=O)Nc2ccc(OCCN3CCOCC3)c3ccccc23)cc1 | 21
* Nc1nc(Nc2ccccc2)cc(-c2ccc3c(N)n[nH]c3c2)n1 | 3

Inquiry: Name the recorded %Inh for O=C(NCCNc1ccnc(NCc2ccc(F)cc2)n1)c1cc2ccccc2s1 .
Reply text: 0

Inquiry: If you can, please state the reported %Inh value of C[C@@H]1CCN(C(=O)CC#N)C[C@@H]1N(C)c1ncnc2[nH]ccc12 .
Reply text: 0

---

# Tested on: ROS1
# test-conditions: concentration: 1 μM,replicates: in singlicate; n = 1
// label = rule met if %Inh is not less than 7%, otherwise rule not met

Inquiry: State whether the measured %Inh reaches 7%, counting equality as reaching it, for O=C(NCCCN1CCOC1=O)c1cnc(NCc2cc(Cl)ccc2Cl)nc1NC1CCCC1
Reply text: rule met

Inquiry: Hello, I need to know if CC(C)Nc1cc(-c2ccc3c(N)n[nH]c3c2)nc(N)n1 [GSK2221681] has measured %Inh not below 7%. Thanks!
Reply text: rule not met

Inquiry: Does %Inh meet or surpass 7% for Cc1cc2cn[nH]c2cc1-c1cccc2c(N)c(C(N)=O)nnc12 ?
Reply text: rule met

Inquiry: Would you say Nc1nc(Nc2ccccc2)cc(-c2ccc3c(N)n[nH]c3c2)n1 [GSK2225749] shows %Inh at minimum 7%?
Reply text: rule not met

---

# Tested on: PRKD3
# test-conditions: concentration: 1 μM,replicates: in singlicate; n = 1
Kindly return Y if reported %Inh is no lower than 60%; return N if it is lower.

* CNC(=O)c1ccccc1Sc1ccc2c(/C=C/c3ccccn3)n[nH]c2c1 | N
* NC(=O)c1cc(-c2ccccc2)cc2c(C3CCNCC3)c[nH]c12 | N

Inquiry: I'd appreciate it if you could say whether Cc1cc(C(=O)Nc2ccc(Oc3ccc4nc(NC(=O)C5CC5)cn4n3)cc2)nn1-c1ccccc1 has %Inh at least equal to 60%.
Reply text: N

Inquiry: Check if %Inh >= 60% (inclusive). Item: CCN(CC)CCOc1ccc(Nc2ncc3cc(-c4c(Cl)cccc4Cl)c(=O)n(C)c3n2)cc1
Reply text: Y

Inquiry: Assess whether reported %Inh for C[C@H]1Oc2cc(cnc2N)-c2c(nn(C)c2C#N)CN(C)C(=O)c2ccc(F)cc21 sits at 60% or higher.
Reply text: N

Inquiry: Evaluate C[C@@H]1CCN(C(=O)CC#N)C[C@@H]1N(C)c1ncnc2[nH]ccc12 : %Inh at minimum 60%?
Reply text: N

---

# Tested on: CSNK1G1
# test-conditions: concentration: 1 μM,replicates: in singlicate; n = 1
%Inh: recorded values
Numbers only; they are read as %.

Inquiry: Report %Inh for Cc1ccc2c(-c3ccncc3)c(-c3ccc(F)cc3)nn2c1.Cl [GW461484] please.
Reply text: 30
